Biological target: HDAC1 C151A (Homo sapiens, UniProt Q13547, C151A)
Sequence (Q13547 whole entry C151A): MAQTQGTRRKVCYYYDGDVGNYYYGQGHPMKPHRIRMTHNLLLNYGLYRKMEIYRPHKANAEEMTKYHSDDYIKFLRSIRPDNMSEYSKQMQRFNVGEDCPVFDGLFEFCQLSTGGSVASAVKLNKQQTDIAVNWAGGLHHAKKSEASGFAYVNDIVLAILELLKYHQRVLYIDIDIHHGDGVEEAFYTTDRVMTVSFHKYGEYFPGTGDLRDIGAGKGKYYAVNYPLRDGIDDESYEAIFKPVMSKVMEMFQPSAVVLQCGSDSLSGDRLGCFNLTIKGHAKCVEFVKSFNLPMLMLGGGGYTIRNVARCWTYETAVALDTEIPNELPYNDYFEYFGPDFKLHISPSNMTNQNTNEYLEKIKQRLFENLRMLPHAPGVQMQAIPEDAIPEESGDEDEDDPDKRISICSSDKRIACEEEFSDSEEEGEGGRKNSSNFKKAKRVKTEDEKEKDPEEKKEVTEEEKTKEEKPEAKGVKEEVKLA
Assay: Acetate inhibition assay
Conditions: acetate inhibition; HDAC1 C151A
result_type: IC50 (mM)
Form entry: value (mM) — number only.

Fill blank: measured IC50 of the molecule CC(=O)[O-].[Na+] [acetate, sodium acetate] is ____.
13

###

Molecular target: HDAC1 F205Y (Homo sapiens, UniProt Q13547, F205Y)
Sequence (Q13547 whole entry F205Y): as the sequence (Q13547 whole entry C151A) above, with A151C, F205Y counted along it
Assay: Acetate inhibition assay
result_type: pIC50
Remember, pIC50 is on a log scale: it is -log10 of the molar concentration.

What does the record list as pIC50 for CC(=O)[O-].[Na+] [acetate, sodium acetate] ?
2.10

src = paper PMC3983352
